- Tested on: A498 renal
- Assay overview: NCI-60 one-dose screen, 48 h
- Measurement parameters: 10 µM unless noted
- Method: Growth inhibition of the A498 human tumor cell line is measured as a screen for anti-cancer activity. Cells are grown in 96 well plates and exposed to the test compound for 48 hours. Compounds are tested at a single concentration, which is 10^-5 M for most compounds. The reported endpoint is percent growth (GI% or GIPRCNT), where numbers from 0 - 100% represent growth inhibition, and numbers from -100% - 0 represent cell death. For example, a value of 40 represents 60% growth inhibition. […]
This is part of a sample that, as a whole, favours compounds with a hit. Of some 83,000 tested, about 20% had one in any assay. Active and inactive are the calls of the source. How the source made its calls: active means growth percent below 10; inactive means the rest.
Use one of these outcomes when replying: active, inactive

Use these answered entries as a reference point.
N#Cc1nc(-c2ccccc2)oc1S(=O)(=O)N1CCOCC1: inactive
N#CC1=C(N)Oc2c(sc3c(Br)cccc23)C1c1ccc(F)cc1 (centres undefined): inactive
CC(C)c1ccc(NC(=O)Nc2ccc(NC(=O)CCCC(=O)NOCc3ccccc3)cc2)cc1: inactive
CN1CCN(c2ccc(C(=O)Nc3cccc(C#Cc4cccc5[nH]nc(N)c45)c3)cc2C(F)(F)F)CC1: active
Cc1nc2sc(C(=O)Nc3ccccc3)c(N)c2cc1C(=O)c1ccccc1: active
CCOC(=O)c1cn2ncnc(Oc3ccc(NC(=O)NC4CCCCC4)c(Cl)c3)c2c1C: inactive
CCN(CC)CCNC(=O)c1cn2ncnc(Oc3ccc(NC(=O)Nc4ccc(Cl)c(C(F)(F)F)c4)c(F)c3)c2c1C: inactive
COc1cc(CNS(=O)(=O)c2ccc(C)cc2)ccc1OCc1cn(-c2ccc(F)cc2)nn1: inactive

Could you please tell me the result logged for CCc1ccc(C(=O)/C=C/C23c4ccccc4C(c4ccccc42)C2C(=O)NC(=O)C23)cc1 (centres undefined) in this assay? active

Could you please tell me the result logged for `O=C(c1cc2ccccc2o1)c1nn(-c2ccccc2)/c(=N/N=Cc2cn(-c3ccccc3)nc2-c2cc3ccccc3oc2=O)s1` in this assay? inactive

Could you please tell me the result logged for `C=C(C)[C@@H]1CC[C@]2(C(=O)NCC#CCN3CCN(C)CC3)CC[C@]3(C)[C@H](CC[C@@H]4[C@@](C)(CCC#N)[C@H](C(=C)C)CC[C@]43C)[C@@H]12` in this assay? inactive

Could you please tell me the result logged for `Cc1ccccc1Cn1cnc2ccc(-c3cc(NC(=O)c4ccc(NC5CCN(C)CC5)cc4)n[nH]3)cc21` in this assay? inactive

Could you please tell me the result logged for `CC1=Nc2cnc(Nc3ccc(OCCN4CCCC4)cc3)nc2Nc2ccccc21` in this assay? active

---

What growth was measured for each of the following?
- Tested on: CAKI-1 renal
- Assay overview: NCI-60 one-dose screen, 48 h (100 = growth as untreated, 0 = no growth, -100 = all killed)
- Measurement parameters: 10 µM unless noted
This is part of a sample that, as a whole, favours compounds with a hit. Of some 83,000 tested, about 20% had one in any assay.
Answers are plain numbers, in %.

O=C(Cn1c(=O)sc2ccccc21)NNS(=O)(=O)c1ccccc1[N+](=O)[O-]: 85.2
O=C1NCCC12CCN(c1c(Cl)cncc1-c1ccc(O)cc1)CC2: 90.3
O=S(=O)(NCCNc1cc(-c2c(-c3cccc(O)c3)nc3sccn23)ccn1)c1ccc(C(F)(F)F)cc1: 29.3

For every listed record, write down its growth.
1. Nc1nc2c([nH]1)c1[nH]c3ccccc3c1c1[nH]c3ccccc3c21
2. Cc1noc(C)c1C(=O)OCc1coc2ccccc2c1=O
3. CCO/C=N/C1=C(C#N)C(c2ccc(OC)cc2)c2sc3c(F)cccc3c2O1 (centres undefined)
4. C=C1C(=O)O[C@H]2[C@H]1CC/C(COC(=O)CCSCCC(=O)OC/C1=C/CC[C@@]3(C)O[C@H]3[C@H]3OC(=O)C(=C)[C@@H]3CC1)=C\CC[C@@]1(C)O[C@@H]21
5. COc1ccc(-c2nn(-c3ccccc3)cc2/C=C2/SC(=S)N(C)C2=O)cc1
6. CC1(C)c2[nH]c3ccccc3c2C[C@]2(C)[C@H]3CC=C4[C@@H]5C[C@@](C)(C(N)=O)CC[C@]5(C)CC[C@@]4(C)[C@]3(C)CC[C@@H]12

1: 83.2; 2: 45.3; 3: 25.2; 4: 4.51; 5: 38.5; 6: 57.7

All figures here come from PubChem BioAssay (NCI).
